The entries below come with measured melting point values attached.
Quick note: give the figure in °C, leave out the unit.

{"mol-smiles": "Brc1ccc(Nc2nnc(SCc3ccccc3-c3ccccc3)o2)cc1", "readout-label": "melting point", "unit-label": "°C", "numeric-readout": 158.2}
{"mol-smiles": "Cc1cccc(C)c1Nc1nnc(C(=O)c2ccc(F)c(Cl)c2)o1", "readout-label": "melting point", "unit-label": "°C", "numeric-readout": 252.8}
{"mol-smiles": "Cc1ccc2cccc(Cc3nnc(/C=C/c4ccc(F)cc4Cl)o3)c2n1", "readout-label": "melting point", "unit-label": "°C", "numeric-readout": 191.2}
{"mol-smiles": "Cc1cc(Cc2nnc(/C=C/c3ccccc3C(C)C)o2)ccc1Br", "readout-label": "melting point", "unit-label": "°C", "numeric-readout": 117.1}

Recorded melting point of "CC(C)c1ccccc1/C=C/c1nnc(Cc2cccc(Br)c2)o1" , please. 79.3

Follow-up item: "Fc1ccc(/C=C/c2nnc(Cc3cccc(Cl)n3)o2)c(Cl)c1" 145.2

Now give it for "Cc1ccc(F)c(Cc2nnc(/C=C/c3ccc(F)cc3Cl)o2)c1" too. 136.9

Moving on to "Cc1ccccc1Sc1nnc(CCn2nc(C)c(Br)c2C)o1" 103.6

Same again, this time with "Clc1cccc(Cl)c1/C=C/c1nnc(Cc2ccc(Br)cc2)o1" 139.3
